Test system: iridophores
Format: cell-based
Assay endpoint: Chromatophore response Iridophores

>>> reading("COC(=O)C=C(C)OP(=O)(OC)OC")
"Hue change, then Imp."
>>> reading("NC[C@H](O)c1ccc(O)c(O)c1 [Norepinephrine]")
"Hue changes (FS)"
>>> reading("COP(=O)(OC)OC=C(Cl)Cl")
"Hue change, then Imp."
>>> reading("CCOP(=O)(OCC)Oc1ccc([N+](=O)[O-])cc1")
"Hue changes (FS)"

* * *

Test system: chromatophores
Assay endpoint: Chromatophore response (cell spans the chromatophore type columns)

>>> reading("COC(=O)[C@@H]1[C@H]2C[C@H]3c4[nH]c5ccccc5c4CCN3C[C@@H]2CC[C@@H]1O [Yohimbine]")
"Blocks norepinephrine"
>>> reading("Cc1ccc(N(CC2=NCCN2)c2cccc(O)c2)cc1 [Phentolamine]")
"Blocks norepinephrine"
>>> reading("[Ag] [Ag]")
"Imp. (FS)"
>>> reading("CC(N)Cc1ccccc1 (stereo not shown) [Amphetamine]")
"Aggr. (FS)"
>>> reading("CNCCCN1c2ccccc2CCc2ccccc21 [Desipramine]")
"Aggr. (FS)"
>>> reading("[Ni] [Ni]")
"Imp. (FS)"
>>> reading("N [Ammonium]")
"Imp. (FS)"
>>> reading("CC(COc1ccccc1)N(CCCl)Cc1ccccc1 (stereo not shown) [Phenoxy-benzamine]")
"Blocks norepinephrine"
>>> reading("O=C(O)c1ccccc1O [Salicylate]")
"Imp. (FS)"
>>> reading("OO [Hydrogen peroxide]")
"Imp. (FS)"
>>> reading("O=S(=O)(F)Cc1ccccc1 [PMSF, phenylmethylsulfonyl fluoride]")
"Imp. (FS)"
>>> reading("Nc1ncnc2c1ncn2[C@@H]1O[C@H](CO)[C@@H](O)[C@H]1O [Adenosine]")
"Disp."
>>> reading("NCCc1ccc(O)c(O)c1 [Dopamine]")
"Aggr. (FS)"
>>> reading("C=C(C=O)C[C@@H]1C[C@H](O)[C@]2(C)O[C@@H]3C[C@@H]4O[C@@H]5C[C@]6(C)O[C@]7(C)CC[C@@H]8O[C@@H]9C[C@]%10(C)O[C@@H]%11C(C)=CC(=O)O[C@H]%11C[C@H]%10O[C@H]9C[C@@H](C)[C@H]8O[C@H]7C[C@H]6O[C@H]5C/C=C\\[C@H]4O[C@H]3C[C@H]2O1 [Brevetoxin]")
"Aggr. (FS)"
>>> reading("[Cu] [Cu]")
"Imp. (FS)"
>>> reading("[Pb] [Pb]")
"Imp. (FS)"

* * *

System: chromatophores
Assay: cells
Settings: read-out: Threshold concentration PPM
Counter-ions that a name gives are not always drawn.
Assay endpoint: minimal effective concentration

>>> reading("CC(N)Cc1ccccc1 (stereo not drawn)")
"1 to 100 µg/mL"
>>> reading("COc1cc(CNC(=O)CCCC/C=C/C(C)C)ccc1O")
"1 to 100 µg/mL"
>>> reading("C=O")
"100 to 1000 µg/mL"
>>> reading("c1cc2ccc3cccc4ccc(c1)c2c34")
"1 to 100 µg/mL"
>>> reading("CN(C)CCC(c1ccccc1)c1ccccn1 (stereo not drawn)")
"100 to 1000 µg/mL"
>>> reading("NCCc1ccc(O)c(O)c1")
"100 to 1000 µg/mL"
>>> reading("COc1cc2c(c(OC)c1OC)-c1ccc(OC)c(=O)cc1[C@@H](NC(C)=O)CC2")
"100 to 1000 µg/mL"
>>> reading("Nc1ncnc2c1ncn2[C@@H]1O[C@H](CO)[C@@H](O)[C@H]1O")
"100 to 1000 µg/mL"
>>> reading("CC(=O)OCC[N+](C)(C)C")
"1 to 100 µg/mL"
>>> reading("CCn1cc(C(=O)O)c(=O)c2ccc(C)nc21")
"1 to 100 µg/mL"
>>> reading("COC(=O)[C@@]1(O)C[C@H]2O[C@]1(C)n1c3ccccc3c3c4c(c5c6ccccc6n2c5c31)C(=O)NC4 [Protein kinase inhibitor K252a]")
"1 to 100 µg/mL"
>>> reading("C=C[C@H]1C[N@@]2CC[C@H]1C[C@H]2[C@H](O)c1ccnc2ccc(OC)cc12 [Quinine sulfate]")
"100 to 1000 µg/mL"
>>> reading("Cc1ncc([N+](=O)[O-])n1CCO")
"1 to 100 µg/mL"
>>> reading("OO [Hydrogen peroxide]")
"100 to 1000 µg/mL"
>>> reading("CCN(CC)CCCC(C)Nc1ccnc2cc(Cl)ccc12 (stereo not drawn)")
"100 to 1000 µg/mL"
>>> reading("CNCCCN1c2ccccc2CCc2ccccc21")
"1 to 100 µg/mL"
>>> reading("C[N+](C)(C)CCOC(N)=O")
"1 to 100 µg/mL"
>>> reading("NCCc1c[nH]cn1")
"100 to 1000 µg/mL"
>>> reading("c1ccc2c(c1)-c1cccc3cccc-2c13")
"1 to 100 µg/mL"
>>> reading("[H]/N=C(/N)N[C@H]1[C@H](O)[C@@H](O)[C@H](O[C@@H]2O[C@@H](C)[C@](O)(C=O)[C@H]2O[C@@H]2O[C@@H](CO)[C@H](O)[C@@H](O)[C@@H]2NC)[C@@H](N/C(N)=N\\[H])[C@@H]1O")
"1 to 100 µg/mL"
>>> reading("NCCc1c[nH]c2ccc(O)cc12")
"1 to 100 µg/mL"

* * *

System: chromatophores
Assay endpoint: Threshold concentration PPB

>>> reading("Cn1c(=O)c2c(ncn2C)n(C)c1=O")
"XXX"
